- Tested on: HPV-16
- measurement description: HPV-16 origin replication in HEK 293 cells, qPCR
- Format: cell-based
- condition label: HEK293; HPV-16 origin replication in HEK 293 cells, 48 hr, qPCR; read-out: EC50
For each of the compounds below, state its EC50.
Quick note: give the figure in nM, leave out the unit.

# input Fill blank: measured EC50 of the compound CCCCCCCCCCCCCCCCCCOCCOP(=O)(CO[C@H](CO)Cn1ccc(N)nc1=O)OCc1ccccc1 (stereo partly shown) is ____.
# output 2230

# input # EC50 lookup, item CCCCCCCCCCCCCCCCCCOCCOP(=O)(COCCn1cnc2c(N)ncnc21)OCc1ccccc1 (stereo not shown)
# output 990

# input For the compound CCCCCCCCCCCCCCCCCCOCCOP(=O)(COCCn1cnc2c(=O)[nH]c(N)nc21)OCc1ccccc1 (racemic) , what EC50 is on record?
# output 200

# input Please look up its EC50: CCCCCCCCCCCCCCCCCCOCCOP(=O)(CO[C@H](CO)Cn1cnc2c(N)ncnc21)OCc1ccccc1 (stereo partly shown)
# output 240
